- Tested on: HBV viral production from HepAD38 cells
- assay.protocol: Activity of test compounds on viral production from HepAD38 cells (viral load by qPCR of HBV core sequence in supernatant)
- Format: cell-based
- test.parameters: Hepatitis B virus, 120 h, 5 days incubation, HBV DNA in supernatant by qPCR, top concentration 10 μM, read-out: Viral Load EC50 Activity range
experimental.endpoint: EC50

Completed entries (count: 3):
Value of EC50 reported for the molecule CN1[C@@H](C(=O)Nc2ccc(F)c(Cl)c2)C[C@@H](c2ccsn2)NS1(=O)=O (relative stereo) is > 5 µM

Value of EC50 reported for the molecule CN1[C@@H](C(=O)Nc2ccc(F)c(Cl)c2)C[C@@H](c2ncc(-c3cncn3C)s2)NS1(=O)=O is > 5 µM

Value of EC50 reported for the molecule CN1[C@H](C(=O)Nc2ccc(F)c(Cl)c2)C[C@H](c2ncc(-c3ccc(F)cn3)s2)NS1(=O)=O is < 1 µM

Read the next record carefully.
Value of EC50 reported for the molecule CN1[C@H](C(=O)Nc2ccc(F)c(Cl)c2)C[C@@H](c2ncc(-c3cn(C)cn3)s2)NS1(=O)=O [HBV-CSU-276-Trans-ISO-II] is 1 to 5 µM

The measurements presented in this section are drawn from patent US11078170B2.
